Molecular target: D(1A) dopamine receptor (Homo sapiens)
Assay: Antagonist of Human D 1 Dopamine Receptor: qHTS; note: % is set by controls: 0 for no effect and ±100 for the full control effect
Settings: HEK293 TREx D1 cells, calcium flux, dopamine EC80; at 10 µM; active compounds read low
In all, about 360,000 compounds went through this assay and about 11,000 (3.1%) were called active. Many of the other results were omitted from the sample, so actives are more common in it than they were.
value-kind: activity change, negative = inhibition (%)

[[record]]
compound = "CCn1c2ccccc2c2nnc(SCC(=O)O)nc21"
tested_on = "D(1A) dopamine receptor (Homo sapiens)"
value_kind = "activity change, negative = inhibition"
unit_of_measurement = "%"
observed_value = 6.1

[[record]]
compound = "Cn1cccc1/C=C1\\SC(=S)N(NC(=O)c2ccc(Cl)cc2)C1=O"
tested_on = "D(1A) dopamine receptor (Homo sapiens)"
value_kind = "activity change, negative = inhibition"
unit_of_measurement = "%"
observed_value = -34

[[record]]
compound = "Cc1nn2c(=O)cc(COC(=O)c3ccccc3NC(=O)COc3ccccc3C)nc2s1"
tested_on = "D(1A) dopamine receptor (Homo sapiens)"
value_kind = "activity change, negative = inhibition"
unit_of_measurement = "%"
observed_value = -3.25

[[record]]
compound = "Cc1ccc(CCNC(=O)c2ccc(CS(=O)(=O)Cc3cccc(C)c3)o2)cc1"
tested_on = "D(1A) dopamine receptor (Homo sapiens)"
value_kind = "activity change, negative = inhibition"
unit_of_measurement = "%"
observed_value = -10.5

[[record]]
compound = "Cc1ccc(CN2COc3cc(C)c4c(oc(=O)c5ccccc54)c3C2)cc1"
tested_on = "D(1A) dopamine receptor (Homo sapiens)"
value_kind = "activity change, negative = inhibition"
unit_of_measurement = "%"
observed_value = 3.2

[[record]]
compound = "CC(C)CC(=O)N=C1SC2CS(=O)(=O)CC2N1CCc1ccccc1 (stereo not given)"
tested_on = "D(1A) dopamine receptor (Homo sapiens)"
value_kind = "activity change, negative = inhibition"
unit_of_measurement = "%"
observed_value = 4.43

[[record]]
compound = "CC(=O)N1C(=O)/C(=C2\\SC(=S)N(NC(=O)c3ccc(O)cc3)C2=O)c2ccccc21"
tested_on = "D(1A) dopamine receptor (Homo sapiens)"
value_kind = "activity change, negative = inhibition"
unit_of_measurement = "%"
observed_value = 2.62

[[record]]
compound = "COc1ccc(C(=O)Nc2nonc2-c2ccc(OC)c(OC)c2)cc1Cl"
tested_on = "D(1A) dopamine receptor (Homo sapiens)"
value_kind = "activity change, negative = inhibition"
unit_of_measurement = "%"
observed_value = 0.206

[[record]]
compound = "CCOc1ccc(C2CC(=O)c3c([nH]c(C(=O)OCc4ccccc4)c3C)C2)cc1 (stereo not given)"
tested_on = "D(1A) dopamine receptor (Homo sapiens)"
value_kind = "activity change, negative = inhibition"
unit_of_measurement = "%"
observed_value = -22.3

[[record]]
compound = "CCOC(=O)c1cccc(NC(=O)C(Cc2ccccc2)NS(=O)(=O)c2cccc3nsnc23)c1 (stereo not given)"
tested_on = "D(1A) dopamine receptor (Homo sapiens)"
value_kind = "activity change, negative = inhibition"
unit_of_measurement = "%"
observed_value = -3.2

[[record]]
compound = "COc1ccc(Cn2c(C(=O)O)c(CNCc3cccc(OC)c3)c3ccc(C)cc32)cc1"
tested_on = "D(1A) dopamine receptor (Homo sapiens)"
value_kind = "activity change, negative = inhibition"
unit_of_measurement = "%"
observed_value = 8.54

[[record]]
compound = "CCCn1c2ccccc2c2cnn(CC(=O)NCC3CCN(Cc4ccc(C)cc4)CC3)c(=O)c21"
tested_on = "D(1A) dopamine receptor (Homo sapiens)"
value_kind = "activity change, negative = inhibition"
unit_of_measurement = "%"
observed_value = -18.2

[[record]]
compound = "CCOC(=O)c1c(C)[nH]c(C)c1S(=O)(=O)NCC(=O)NCc1cccc(C)c1"
tested_on = "D(1A) dopamine receptor (Homo sapiens)"
value_kind = "activity change, negative = inhibition"
unit_of_measurement = "%"
observed_value = 13.9

[[record]]
compound = "Cc1oc2ncnc(N3CCCCC3)c2c1C(=O)N1CCN(c2cccc(Cl)c2)CC1"
tested_on = "D(1A) dopamine receptor (Homo sapiens)"
value_kind = "activity change, negative = inhibition"
unit_of_measurement = "%"
observed_value = -0.886

[[record]]
compound = "Cc1ccc(-c2nn3c(=O)cc(CN4CCN(C(=O)Nc5cccc(C(F)(F)F)c5)CC4)nc3s2)cc1"
tested_on = "D(1A) dopamine receptor (Homo sapiens)"
value_kind = "activity change, negative = inhibition"
unit_of_measurement = "%"
observed_value = 4.59

[[record]]
compound = "COc1ccc(-n2c(SCC(=O)NCc3cccs3)nnc2-c2ccoc2C)cc1"
tested_on = "D(1A) dopamine receptor (Homo sapiens)"
value_kind = "activity change, negative = inhibition"
unit_of_measurement = "%"
observed_value = -0.757

[[record]]
compound = "CCc1ccccc1NC(=O)N1CCN(C(=O)c2nsc3ccccc23)CC1"
tested_on = "D(1A) dopamine receptor (Homo sapiens)"
value_kind = "activity change, negative = inhibition"
unit_of_measurement = "%"
observed_value = 5.59

[[record]]
compound = "CCOc1ccccc1NC(=O)C1CCCN(S(=O)(=O)c2cn(C)cn2)C1 (stereo not given)"
tested_on = "D(1A) dopamine receptor (Homo sapiens)"
value_kind = "activity change, negative = inhibition"
unit_of_measurement = "%"
observed_value = -15.7

[[record]]
compound = "O=C(CSc1oc(-c2ccco2)nc1S(=O)(=O)c1ccccc1)c1ccc(Cl)cc1"
tested_on = "D(1A) dopamine receptor (Homo sapiens)"
value_kind = "activity change, negative = inhibition"
unit_of_measurement = "%"
observed_value = -17.4

[[record]]
compound = "Cc1cccc(NC(=O)c2ccc(F)c(S(=O)(=O)N(C)C3CCCCC3)c2)c1"
tested_on = "D(1A) dopamine receptor (Homo sapiens)"
value_kind = "activity change, negative = inhibition"
unit_of_measurement = "%"
observed_value = 4.16


Data credit: PubChem BioAssay AID504652
